Molecular target: human DPP-IV (Homo sapiens, UniProt P27487)
Sequence (P27487 31-766): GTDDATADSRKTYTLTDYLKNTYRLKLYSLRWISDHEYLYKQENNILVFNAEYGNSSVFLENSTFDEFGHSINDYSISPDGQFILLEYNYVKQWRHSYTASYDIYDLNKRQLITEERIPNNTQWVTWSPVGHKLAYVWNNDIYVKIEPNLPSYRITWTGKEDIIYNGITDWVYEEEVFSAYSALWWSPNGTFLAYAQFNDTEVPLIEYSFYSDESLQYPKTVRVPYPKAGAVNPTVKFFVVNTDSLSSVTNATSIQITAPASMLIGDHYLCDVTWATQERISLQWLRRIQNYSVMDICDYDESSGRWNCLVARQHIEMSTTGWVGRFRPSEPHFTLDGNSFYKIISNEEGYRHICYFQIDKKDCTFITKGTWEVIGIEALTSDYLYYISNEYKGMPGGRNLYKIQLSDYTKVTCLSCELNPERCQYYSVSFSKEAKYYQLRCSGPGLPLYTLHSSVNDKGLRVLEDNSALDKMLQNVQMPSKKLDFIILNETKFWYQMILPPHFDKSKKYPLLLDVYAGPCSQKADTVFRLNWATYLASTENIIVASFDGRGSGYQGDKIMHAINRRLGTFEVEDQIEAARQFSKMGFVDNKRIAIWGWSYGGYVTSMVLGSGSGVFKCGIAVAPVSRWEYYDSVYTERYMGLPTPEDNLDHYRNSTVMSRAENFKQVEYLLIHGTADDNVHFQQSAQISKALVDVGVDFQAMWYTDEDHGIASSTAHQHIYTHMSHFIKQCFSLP
Assay: DPP-IV activity assay (fluorogenic or colorimetric substrate), IC50 determination
Details: natural human DPP-IV from human plasma pool or recombinant human DPP-IV; 37° C., pH 7.8
measuredAttribute: IC50 (nM)
Number in nM, nothing else.

// query # get_value(readout= IC50, system= human DPP-IV (Homo sapiens, UniProt P27487)) for Cc1c(C)n(C[C@H](C)NCC(=O)N2CCC[C@H]2C#N)c2ccccc12 [Example 7]
// result 88

// query # get_value(readout= IC50, system= human DPP-IV (Homo sapiens, UniProt P27487)) for CC(C)(CNc1cccc(-c2ccccc2)n1)NCC(=O)N1CCC[C@H]1C#N [Example 129]
// result 1

// query # get_value(readout= IC50, system= human DPP-IV (Homo sapiens, UniProt P27487)) for Cc1cccc(-c2nc(CC(C)(C)NCC(=O)N3CCC[C@H]3C#N)c(C)[nH]2)c1 [Example 188]
// result 1

// query # get_value(readout= IC50, system= human DPP-IV (Homo sapiens, UniProt P27487)) for CC(C)(CNc1ccc(-c2cccc(C(F)(F)F)c2)cn1)NCC(=O)N1CCC[C@H]1C#N [Example 119]
// result 7

// query # get_value(readout= IC50, system= human DPP-IV (Homo sapiens, UniProt P27487)) for COc1cc2c(C(=O)C(F)(F)F)cn(C[C@H](C)NCC(=O)N3CCC[C@H]3C#N)c2cc1OC [Example 23]
// result 128
